Origin of the recorded values: paper PMC4832192

tested-system: PhoP wild type (Mycobacterium tuberculosis, UniProt P71814 1-247)
measurement-notes: ITC; 5 mM MgCl2; ITC: 20 mM HEPES pH 7.5, 100 mM NaCl, 5 mM MgCl2, 25 C, […]
cond: protein: recombinant; tags: N-terminal His-tag removed with TEV; chain copies: 2
The entries below come with measured Kd values attached.
metric: Kd (nM)

tri (three motifs) (dsDNA) DNA 1: GTACCTCACAGCACTTTCACAGCTTTCTCACAGCATCTATG DNA 2: CATAGATGCTGTGAGAAAGCTGTGAAAGTGCTGTGAGGTAC | 4.6
DR (dsDNA) DNA 1: ACGATTCACAGCTGATTCACAGCATCTACG DNA 2: CGTAGATGCTGTGAATCAGCTGTGAATCGT | 19.2
lpqA (dsDNA) DNA 1: GCACCTTCACCGCCCGCCCACAGCCACGCA DNA 2: TGCGTGGCTGTGGGCGGGCGGTGAAGGTGC | 347
